Some compounds, each annotated with its measured pIC50.
# tested.system: Protein arginine N-methyltransferase 5 (Homo sapiens, UniProt O14744)
# Sequence (O14744 whole entry): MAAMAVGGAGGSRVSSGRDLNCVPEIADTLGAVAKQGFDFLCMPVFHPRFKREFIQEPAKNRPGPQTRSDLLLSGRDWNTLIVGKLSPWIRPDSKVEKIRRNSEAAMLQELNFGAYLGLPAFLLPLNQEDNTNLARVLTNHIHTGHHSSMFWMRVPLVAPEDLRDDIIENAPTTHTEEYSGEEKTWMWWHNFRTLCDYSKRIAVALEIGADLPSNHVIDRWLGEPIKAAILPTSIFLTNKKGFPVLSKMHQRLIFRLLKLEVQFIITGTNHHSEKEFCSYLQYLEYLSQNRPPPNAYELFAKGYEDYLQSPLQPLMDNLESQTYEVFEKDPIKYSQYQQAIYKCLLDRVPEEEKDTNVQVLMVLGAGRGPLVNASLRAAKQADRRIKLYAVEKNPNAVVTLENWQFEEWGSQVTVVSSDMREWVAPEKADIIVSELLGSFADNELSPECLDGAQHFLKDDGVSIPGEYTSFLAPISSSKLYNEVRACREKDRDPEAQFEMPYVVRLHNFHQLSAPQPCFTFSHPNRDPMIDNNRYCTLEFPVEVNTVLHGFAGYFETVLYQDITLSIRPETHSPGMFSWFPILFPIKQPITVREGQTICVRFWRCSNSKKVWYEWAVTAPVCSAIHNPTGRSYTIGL
# assay.protocol: Displacement of [3H]-SAM from recombinant His6-tagged PRMT5 (unknown origin) expressed in Escherichia coli BL21(DE3) incubated for 5 mins prior to H4(1 to 20)-BTN peptide addition measured after 8 mins by scintillation proximity assay
pIC50: −log10 of the molar value.
readout.type: pIC50

[[record]]
molecular_string = "C(/C=C/c1sc2c3ccccc3ccc2[n+]1CCCc1ccccc1)=C1/Sc2c(ccc3ccccc23)N1CCCc1ccccc1"
tested_system = "Protein arginine N-methyltransferase 5 (Homo sapiens, UniProt O14744)"
readout_type = "pIC50"
observed_value = 5.15

[[record]]
molecular_string = "CC1(C)C(/C=C/C=C2/N(CCCc3ccccc3)c3ccc4ccccc4c3C2(C)C)=[N+](CCCc2ccccc2)c2ccc3ccccc3c21"
tested_system = "Protein arginine N-methyltransferase 5 (Homo sapiens, UniProt O14744)"
readout_type = "pIC50"
observed_value = 5.85

[[record]]
molecular_string = "CCCCN1/C(=C/C=C/c2sc3ccc(Br)cc3[n+]2CCCC)Sc2ccc(Br)cc21"
tested_system = "Protein arginine N-methyltransferase 5 (Homo sapiens, UniProt O14744)"
readout_type = "pIC50"
observed_value = 5.08

[[record]]
molecular_string = "CCCCN1/C(=C/C=C(Br)/C=C/C2=[N+](CCCC)c3ccc(Br)cc3C2(C)C)C(C)(C)c2cc(Br)ccc21"
tested_system = "Protein arginine N-methyltransferase 5 (Homo sapiens, UniProt O14744)"
readout_type = "pIC50"
observed_value = 4.45


---

# tested.system: Protein arginine N-methyltransferase 1 (Homo sapiens, UniProt Q99873)
# Sequence (Q99873 whole entry, looked up): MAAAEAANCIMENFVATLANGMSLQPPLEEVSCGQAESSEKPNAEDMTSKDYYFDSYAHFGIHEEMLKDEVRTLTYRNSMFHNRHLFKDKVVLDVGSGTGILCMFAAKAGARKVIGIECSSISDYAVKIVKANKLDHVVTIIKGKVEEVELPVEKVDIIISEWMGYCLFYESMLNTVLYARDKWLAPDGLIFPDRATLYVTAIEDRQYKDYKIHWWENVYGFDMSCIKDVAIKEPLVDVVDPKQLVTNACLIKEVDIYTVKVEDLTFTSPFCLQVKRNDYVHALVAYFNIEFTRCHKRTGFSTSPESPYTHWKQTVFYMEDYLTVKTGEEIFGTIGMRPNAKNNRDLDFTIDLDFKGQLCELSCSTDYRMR
# assay.protocol: Displacement of [3H]-SAM from recombinant His6-tagged PRMT1 (unknown origin) expressed in Escherichia coli BL21(DE3) at 90 uM incubated for 5 mins prior to H4(1 to 20)-BTN peptide addition measured after 8 mins by scintillation proximity assay
Calls of active or inactive are those of the source. No cut-off for these calls is given here.
readout.type: inhibition

[[record]]
molecular_string = "CCCC[N+]1=C(C)C(C)(C)c2ccccc21"
tested_system = "Protein arginine N-methyltransferase 1 (Homo sapiens, UniProt Q99873)"
readout_type = "inhibition"
observed_value = "inactive"

[[record]]
molecular_string = "CC[N+]1=C(/C=C/C=C2/N(C)c3ccccc3C2(C)C)C(C)(C)c2ccccc21"
tested_system = "Protein arginine N-methyltransferase 1 (Homo sapiens, UniProt Q99873)"
readout_type = "inhibition"
observed_value = "41%"

[[record]]
molecular_string = "CN1/C(=C/C=C/C2=[N+](CCCc3ccccc3)c3ccccc3C2(C)C)C(C)(C)c2ccccc21"
tested_system = "Protein arginine N-methyltransferase 1 (Homo sapiens, UniProt Q99873)"
readout_type = "inhibition"
observed_value = "101%"

[[record]]
molecular_string = "CC1=[N+](CCCc2ccccc2)c2ccccc2C1(C)C"
tested_system = "Protein arginine N-methyltransferase 1 (Homo sapiens, UniProt Q99873)"
readout_type = "inhibition"
observed_value = "80%"

[[record]]
molecular_string = "CCCCN1/C(=C/C=C/C2=[N+](CCCC)c3ccccc3C2(C)C)C(C)(C)c2ccccc21"
tested_system = "Protein arginine N-methyltransferase 1 (Homo sapiens, UniProt Q99873)"
readout_type = "inhibition"
observed_value = "91%"

[[record]]
molecular_string = "CCN1/C(=C\\C=C\\C2=[N+](CC)c3ccccc3C2(C)C)C(C)(C)c2ccccc21"
tested_system = "Protein arginine N-methyltransferase 1 (Homo sapiens, UniProt Q99873)"
readout_type = "inhibition"
observed_value = "60.6%"

[[record]]
molecular_string = "CC[N+]1=C(C)C(C)(C)c2ccccc21"
tested_system = "Protein arginine N-methyltransferase 1 (Homo sapiens, UniProt Q99873)"
readout_type = "inhibition"
observed_value = "inactive"

[[record]]
molecular_string = "CC1(C)C(/C=C/C=C2/N(CCCc3ccccc3)c3ccccc3C2(C)C)=[N+](CCCc2ccccc2)c2ccccc21"
tested_system = "Protein arginine N-methyltransferase 1 (Homo sapiens, UniProt Q99873)"
readout_type = "inhibition"
observed_value = "100%"

[[record]]
molecular_string = "CCCC[N+]1=C(/C=C/C=C2/N(C)c3ccccc3C2(C)C)C(C)(C)c2ccccc21"
tested_system = "Protein arginine N-methyltransferase 1 (Homo sapiens, UniProt Q99873)"
readout_type = "inhibition"
observed_value = "79%"


---

# tested.system: Protein arginine N-methyltransferase 1 (Homo sapiens, UniProt Q99873)
# assay.protocol: Displacement of [3H]-SAM from recombinant His6-tagged PRMT1 (unknown origin) expressed in Escherichia coli BL21(DE3) at 30 uM incubated for 5 mins prior to H4(1 to 20)-BTN peptide addition measured after 8 mins by scintillation proximity assay
The source made the active and inactive calls. No cut-off for these calls is given here.
readout.type: inhibition

[[record]]
molecular_string = "CC1(C)C(/C=C/C=C2/N(CCCc3ccccc3)c3ccccc3C2(C)C)=[N+](CCCc2ccccc2)c2ccccc21"
observed_value = "101%"

[[record]]
molecular_string = "CN1/C(=C/C=C/C2=[N+](CCCc3ccccc3)c3ccccc3C2(C)C)C(C)(C)c2ccccc21"
observed_value = "96%"

[[record]]
molecular_string = "CCCC[N+]1=C(/C=C/C=C2/N(C)c3ccccc3C2(C)C)C(C)(C)c2ccccc21"
observed_value = "32%"

[[record]]
molecular_string = "CCN1/C(=C\\C=C\\C2=[N+](CC)c3ccccc3C2(C)C)C(C)(C)c2ccccc21"
observed_value = "42%"

[[record]]
molecular_string = "CC1=[N+](CCCc2ccccc2)c2ccccc2C1(C)C"
observed_value = "inactive"

[[record]]
molecular_string = "CCCCN1/C(=C/C=C/C2=[N+](CCCC)c3ccccc3C2(C)C)C(C)(C)c2ccccc21"
observed_value = "48%"

[[record]]
molecular_string = "CC[N+]1=C(C)C(C)(C)c2ccccc21"
observed_value = "inactive"

[[record]]
molecular_string = "CC[N+]1=C(/C=C/C=C2/N(C)c3ccccc3C2(C)C)C(C)(C)c2ccccc21"
observed_value = "9%"

[[record]]
molecular_string = "CCCC[N+]1=C(C)C(C)(C)c2ccccc21"
observed_value = "inactive"


---

# tested.system: UniProt:Q99873
# assay.protocol: Displacement of [3H]-SAM from recombinant His6-tagged PRMT1 (unknown origin) expressed in Escherichia coli BL21(DE3) at 10 uM incubated for 5 mins prior to H4(1 to 20)-BTN peptide addition measured after 8 mins by scintillation proximity assay
Active and inactive are the calls of the source. No cut-off for these calls is given here.
readout.type: inhibition

[[record]]
molecular_string = "CCN1/C(=C/C=C/C2=[N+](CC)c3ccc(Br)cc3C2(C)C)C(C)(C)c2cc(Br)ccc21"
readout_type = "inhibition"
observed_value = "11%"

[[record]]
molecular_string = "C(/C=C/c1sc2c3ccccc3ccc2[n+]1CCCc1ccccc1)=C1/Sc2c(ccc3ccccc23)N1CCCc1ccccc1"
readout_type = "inhibition"
observed_value = "100%"

[[record]]
molecular_string = "CCCCN1/C(=C/C=C/C2=[N+](CCCC)c3ccc(Br)cc3C2(C)C)C(C)(C)c2cc(Br)ccc21"
readout_type = "inhibition"
observed_value = "48%"

[[record]]
molecular_string = "CC[N+]1=C(/C=C/C=C2/N(C)c3ccccc3C2(C)C)C(C)(C)c2ccccc21"
readout_type = "inhibition"
observed_value = "inactive"

[[record]]
molecular_string = "CC1=[N+](CCCc2ccccc2)c2ccccc2C1(C)C"
readout_type = "inhibition"
observed_value = "inactive"

[[record]]
molecular_string = "CN1/C(=C/C=C/C2=[N+](CCCS(=O)(=O)[O-])c3ccccc3C2(C)C)C(C)(C)c2ccccc21"
readout_type = "inhibition"
observed_value = "inactive"

[[record]]
molecular_string = "CCN1/C(=C/C=C/c2sc3c4ccccc4ccc3[n+]2CC)Sc2c1ccc1ccccc21"
readout_type = "inhibition"
observed_value = "40%"

[[record]]
molecular_string = "CC[N+]1=C(C)C(C)(C)c2ccccc21"
readout_type = "inhibition"
observed_value = "inactive"

[[record]]
molecular_string = "C(/C=C/c1sc2ccccc2[n+]1CCCc1ccccc1)=C1/Sc2ccccc2N1CCCc1ccccc1"
readout_type = "inhibition"
observed_value = "76%"


---

# tested.system: Protein arginine N-methyltransferase 1 (Homo sapiens)
# assay.protocol: Displacement of [3H]-SAM from recombinant His6-tagged PRMT1 (unknown origin) expressed in Escherichia coli BL21(DE3) at 10 uM incubated for 5 mins prior to H4(1 to 20)-BTN peptide addition measured after 8 mins by scintillation proximity assay
Active and inactive are the calls of the source. No cut-off for these calls is given here.
readout.type: inhibition

[[record]]
molecular_string = "CCN1/C(=C/C=C/C=C/C2=[N+](CC)c3ccc4ccccc4c3C2(C)C)C(C)(C)c2c1ccc1ccccc21"
observed_value = "89%"

[[record]]
molecular_string = "CC1(C)C(/C=C/C=C2/N(CCCc3ccccc3)c3ccccc3C2(C)C)=[N+](CCCc2ccccc2)c2ccccc21"
observed_value = "41%"

[[record]]
molecular_string = "CCN1/C(=C\\C=C\\C2=[N+](CC)c3ccccc3C2(C)C)C(C)(C)c2ccccc21"
observed_value = "4%"

[[record]]
molecular_string = "CCCCN1/C(=C/C=C/c2sc3ccc(Br)cc3[n+]2CCCC)Sc2ccc(Br)cc21"
observed_value = "91%"

[[record]]
molecular_string = "CCCC[N+]1=C(C)C(C)(C)c2ccccc21"
observed_value = "inactive"

[[record]]
molecular_string = "CCN1/C(=C/C(C)=C/c2sc3c4ccccc4ccc3[n+]2CC)Sc2c1ccc1ccccc21"
observed_value = "92%"

[[record]]
molecular_string = "CCCCN1/C(=C/C=C/C2=[N+](CCCC)c3ccc4ccccc4c3C2(C)C)C(C)(C)c2c1ccc1ccccc21"
observed_value = "91%"

[[record]]
molecular_string = "CCCCN1/C(=C/C=C/c2sc3ccccc3[n+]2CCCC)Sc2ccccc21"
observed_value = "79%"

[[record]]
molecular_string = "CCCCN1/C(=C/C=C/C2=[N+](CCCC)c3ccccc3C2(C)C)C(C)(C)c2ccccc21"
observed_value = "inactive"

[[record]]
molecular_string = "CCCCN1/C(=C/C=C/c2sc3c4ccccc4ccc3[n+]2CCCC)Sc2c1ccc1ccccc21"
observed_value = "99%"

[[record]]
molecular_string = "CCN1/C(=C/C=C/c2sc3cc(Br)ccc3[n+]2CC)Sc2cc(Br)ccc21"
observed_value = "88%"

[[record]]
molecular_string = "CC1(C)C(/C=C/C=C2/N(CCCc3ccccc3)c3ccc(Br)cc3C2(C)C)=[N+](CCCc2ccccc2)c2ccc(Br)cc21"
observed_value = "101%"

[[record]]
molecular_string = "CCCCN1/C(=C/C=C/c2sc3cc(Br)ccc3[n+]2CCCC)Sc2cc(Br)ccc21"
observed_value = "93%"

[[record]]
molecular_string = "CN1/C(=C/C=C/C2=[N+](CCC[N+](C)(C)C)c3ccc(S(=O)(=O)[O-])cc3C2(C)C)C(C)(C)c2ccccc21"
observed_value = "inactive"

[[record]]
molecular_string = "CCCCN1/C(=C/C=C/C2=[N+](CCCC)c3ccc(Cl)cc3C2(C)C)C(C)(C)c2cc(Cl)ccc21"
observed_value = "34%"

[[record]]
molecular_string = "CCCCN1/C(=C/C(C)=C/c2sc3ccccc3[n+]2CCCC)Sc2ccccc21"
observed_value = "77%"

[[record]]
molecular_string = "CCN1/C(=C/C=C(Cl)/C=C/C2=[N+](CC)c3ccc4ccccc4c3C2(C)C)C(C)(C)c2c1ccc1ccccc21"
observed_value = "69%"

[[record]]
molecular_string = "CC1(C)C(/C=C/C=C/C=C2/N(CCCc3ccccc3)c3ccc4ccccc4c3C2(C)C)=[N+](CCCc2ccccc2)c2ccc3ccccc3c21"
observed_value = "70.2%"

[[record]]
molecular_string = "CCCCN1/C(=C/C=C(Br)/C=C/C2=[N+](CCCC)c3ccc(Br)cc3C2(C)C)C(C)(C)c2cc(Br)ccc21"
observed_value = "96%"

[[record]]
molecular_string = "CN1/C(=C/C=C/C2=[N+](CCC[N+](C)(C)C)c3ccccc3C2(C)C)C(C)(C)c2ccccc21"
observed_value = "2%"

[[record]]
molecular_string = "CCCC[N+]1=C(/C=C/C=C2/N(C)c3ccccc3C2(C)C)C(C)(C)c2ccccc21"
observed_value = "8%"

[[record]]
molecular_string = "CCCCN1/C(=C/C(/C=C/c2ccccc2)=C/c2sc3ccccc3[n+]2CCCC)Sc2ccccc21"
observed_value = "48%"

[[record]]
molecular_string = "CCCC[N+]1=C(/C=C/C=C2/N(C)c3ccccc3C2(C)C)C(C)(C)c2cc(Br)ccc21"
observed_value = "36%"

[[record]]
molecular_string = "CCN1/C(=C/C=C/C2=[N+](CC)c3ccc4ccccc4c3C2(C)C)C(C)(C)c2c1ccc1ccccc21"
observed_value = "27%"

[[record]]
molecular_string = "CC1(C)C(/C=C/C=C2/N(CCCc3ccccc3)c3ccc4ccccc4c3C2(C)C)=[N+](CCCc2ccccc2)c2ccc3ccccc3c21"
observed_value = "100%"

[[record]]
molecular_string = "CCN1/C(=C/C=C/c2sc3ccccc3[n+]2CC)Sc2ccccc21"
observed_value = "46%"

[[record]]
molecular_string = "CN1/C(=C/C=C/C2=[N+](CCCc3ccccc3)c3ccccc3C2(C)C)C(C)(C)c2ccccc21"
observed_value = "35%"

[[record]]
molecular_string = "CCN1/C(=C/C=C/C2=[N+](CC)c3ccc(Cl)cc3C2(C)C)C(C)(C)c2cc(Cl)ccc21"
observed_value = "7%"

[[record]]
molecular_string = "CC1(C)C(/C=C/C(Cl)=C/C=C2/N(CCCc3ccccc3)c3ccc4ccccc4c3C2(C)C)=[N+](CCCc2ccccc2)c2ccc3ccccc3c21"
observed_value = "96.3%"

[[record]]
molecular_string = "CC1(C)C(/C=C/C=C2/N(CCCc3ccccc3)c3ccc(Cl)cc3C2(C)C)=[N+](CCCc2ccccc2)c2ccc(Cl)cc21"
observed_value = "100%"


Data credit: ChEMBL document CHEMBL3407369
